Entries and their IC50
# System: WM-266-4 cells
# method_description: Tumor cell line proliferation assay (CellTiter Glo), WM-266-4
# Format: cell-based
# stated_conditions: Homo sapiens, 96 hours, read-out: WM-266-4 (V599D) Cell Proliferation IC50

* Cc1cc(-c2n[nH]c3cc4c(cc23)CN([C@H](C)c2ccc(Cl)cc2)C(=O)N4)ccn1 | 250 to 1000 nM
* Cc1cc(-c2n[nH]c3cc4[nH]c(=O)n(CCc5ccccc5)c4cc23)ccn1 | > 1000 nM
* O=C1Nc2cc3[nH]nc(-c4ccncc4)c3cc2CN1Cc1ccccc1 | ≤ 250 nM
* Cc1cc(-c2n[nH]c3cc4[nH]c(=O)n(Cc5ccc(F)c(Cl)c5)c(=O)c4cc23)ccn1 | > 1000 nM
* Cc1cc(-c2n[nH]c3cc4c(cc23)CN(Cc2cccc(Cl)c2)C(=O)N4)ccn1 | ≤ 250 nM

# input Bench note: what IC50 did Cc1cc(-c2n[nH]c3cc4c(cc23)CN(CCc2ccc(F)cc2)C(=O)N4)ccn1 show?
# output 250 to 1000 nM

# input Bench note: what IC50 did COc1ncccc1CN1Cc2cc3c(-c4ccnc(C)c4)n[nH]c3cc2NC1=O show?
# output 250 to 1000 nM
